assay: Toxicity liver stage against HepG2, at 10uM; type: cell-based; set-up: test concentration 10 uM, cell line HepG2-A16-CD81EGFP; conditions: human, HepG2-A16-CD81EGFP cells; read-out: INHIBITION
Readings of cytotoxicity at 10 µM for the listed molecules
Please reply with the bare figure in % and do not write the unit itself.

O=C(NCC1(O)CCSCC1)c1nccc2ccccc12
4.59
COc1cc(N[C@@H](Cc2ccccc2)C(N)=O)ncn1
10.1
O=S(=O)(c1cn[nH]c1)N1CCCC(O)(CN2CCOCC2)CC1 (stereo not drawn)
6.61
c1ccc2c(c1)CC(Cc1cc(N3CCCC3)cnn1)CCO2 (stereo not drawn)
-5.5
O=C(c1c[nH]cn1)N1CCCn2c(nnc2Cn2cccc2)C1
0.399

So for Cn1nc(Cn2ccnc2)c2c1CN(C(=O)c1ccoc1)C2 , the logged cytotoxicity at 10 µM turned out to be -58.9

Entry under test: Cn1ccnc1CN1CC[C@@H]2[C@@H](CCC(=O)N2CCc2c[nH]cn2)C1 . Its cytotoxicity at 10 µM was -5.68

Recorded result, Cc1noc(C)c1CN1CCc2ncc(CN3CCCC3)n2CC1 , cytotoxicity at 10 µM: 0.78

----------
assay: Toxicity liver stage against HepG2, at 10uM; format: cell-based; design: test concentration 10 uM, cell line HepG2-A16-CD81EGFP; conditions: human, HepG2-A16-CD81EGFP cells; read-out: INHIBITION
measuredEndpoint: cytotoxicity at 10 µM
Lab note: write values as number then unit, every time.

Use these answered entries as a reference point.
CCc1nncn1CCNC(=O)N1CCN(Cc2ccccc2)CC1
3.84%
Cc1noc(-c2ccnc(N3CCC(N4CCCC4)CC3)c2)n1
0.409%
Cc1ncccc1-c1cc2cccnc2n1CCCNC(=O)C(C)(C)C
12.8%
CCN1C[C@H]2C3(CCN(C(C)=O)CC3)CC[C@@]2(C(=O)N(C)C)C1
-104%
CCN1CCCC1CN(Cc1ccon1)CC1CCN(CCOC)CC1 (stereo unspecified)
-0.525%
CN(C)CCOCc1cncc2c1CCN(C(=O)c1cscn1)C2
-102%

In plain terms, OC1(Cn2ccc3ncccc32)CCN(Cc2ccccc2F)CC1 has a documented cytotoxicity at 10 µM of -5.33%

The reported cytotoxicity at 10 µM of the molecule COc1cc(NCCNC(=O)c2cc[nH]c2C)cc(OC)c1 was -4.33%

Per the records, this molecule ( O=C(O)c1cccc(CC2CCN(c3ncc(F)cn3)CC2)c1 ) has cytotoxicity at 10 µM equal to -108%

The measured cytotoxicity at 10 µM associated with COCCCNS(=O)(=O)c1cccc(CSC)c1 reads 11.9%

// field: cytotoxicity at 10 µM; key: CCC[C@@H]1CN(C(=O)c2cc(-c3cccs3)n(C)n2)C[C@H]1NS(C)(=O)=O ; value = -1.63%

Recorded result, Cc1nc(CNC(=O)NCCC2=CCCC2)oc1C , cytotoxicity at 10 µM: -1.18%

The molecule listed as COCC1CN(Cc2ccc(OC)cc2)S(=O)(=O)c2cnccc2O1 (stereo unspecified) has a reported cytotoxicity at 10 µM of -1.78%

Data point: CCC(C)(C)NC(=O)c1ncn2c1CN(C)S(=O)(=O)c1ccccc1-2 ; cytotoxicity at 10 µM = -137%

Lab note: COc1ccc(N2CCCC3(C2)CN(c2cccnc2)CCO3)cc1 (stereo unspecified) gave cytotoxicity at 10 µM of 6.59%

Record summary for c1cnnc(N[C@@H]2CC[C@@H]3CN(Cc4c[nH]c5ccccc45)C[C@@H]32)c1 : reported cytotoxicity at 10 µM = 3.33%

# cytotoxicity at 10 µM of Cn1nc2c(cc1=O)CN(CC(=O)Nc1cc(C(C)(C)C)no1)CC2 = -4.1%

# cytotoxicity at 10 µM (molecule: CCOc1ccc(S(=O)(=O)NCc2cccnc2N(C)C)cc1 ) is 34.7%

The molecule identified as COc1ccc(S(=O)(=O)NC(=O)COC2CCCC2)cc1 registered its cytotoxicity at 10 µM at -2.55%

Per the record, Cn1cc(C(=O)N2CCCC2CCc2ccccc2)cn1 (stereo unspecified) has cytotoxicity at 10 µM of 9.84%

response.value for CCc1ncc2c(n1)CN(Cc1cccc(OCC(N)=O)c1)CC2 (field: cytotoxicity at 10 µM) = -7.42%

// sample c1cnc(N2CCCC(NCc3cccc4c3OCCO4)C2)nc1 (stereo unspecified) , its cytotoxicity at 10 µM was -8.18%

CN1N=C(C(=O)NCCc2ccc(OC3CCCC3)cc2)CCC1=O yielded cytotoxicity at 10 µM of -1.52%

GET /value?item= Cc1nc(N2CCN(C(=O)c3ccccn3)CC2)c2c(n1)c(C)nn2C &field=cytotoxicity at 10 µM returns 5.06%

// field: cytotoxicity at 10 µM; key: COCCN1C(=O)CC[C@@H]2[C@@H]1CCN2S(=O)(=O)C1CC1 ; value = -98.4%

Reported cytotoxicity at 10 µM of COC(=O)C1=NOC(Cc2cc(OC)c3c(c2)OCO3)C1 (stereo unspecified) : 5.82%

Noted for C1CCC(NCC2(N3CCOCC3)CCSC2)C1 (stereo unspecified) : its cytotoxicity at 10 µM reads -10.8%

Notebook: O=C(CCc1ccc(O)cc1)N1CCC(Cc2ccc(CO)cc2)C1 (stereo unspecified) , cytotoxicity at 10 µM read as 14.8%
